Origin of values: ChEMBL document CHEMBL1201862

# System: IGROV-1
# assay info: NCI tumour cell line growth inhibition, 48 h
Activity calls are given as the source filed them. Cut-off read from the data, not from the text of the source: active = GI50 up to about 1.1 µM and inactive = higher.
measured metric: GI50

COC(=O)c1cc2c(nc1C)-c1ccccc1OS2(=O)=O
> 100 µM (inactive)

Q: GI50 for CC(=O)OC1CC[C@@]2(C)C(CC[C@]3(C)C2CC=C2[C@@H]4CC(C)(C)CCC4(C)CCC23C)[C@@]1(C)C(=O)O (stereo partly specified) ?
Ans: 16.4 µM (inactive)

Q: # GI50 lookup, item CC(C)N(C(=O)c1ccc(NCc2cc(O)ccc2O)cc1)C(C)C
Ans: 17.7 µM (inactive)

Q: I have this molecule here, CC(=O)Oc1ccc2cc(Oc3ccc(Cl)cc3)c(=O)oc2c1 , and I need its recorded GI50.
Ans: 30.1 µM (inactive)

Q: GI50 for COc1ccc(C(N)=O)cc1/N=N/N(C)C ?
Ans: > 100 µM (inactive)

Q: Query (molecule): O=C1CCC(=O)C1=NNc1ccccc1 ; field requested: GI50
Ans: > 100 µM (inactive)

----------
# Test system: TK-10
# assay info: NCI tumour cell line growth inhibition, 48 h
Activity calls are given as the source filed them. Cut-off read from the data, not from the text of the source: active = GI50 up to about 1.1 µM and inactive = higher.
Please answer using one outcome listed in t = active, f = inactive

c1ccc(C2(c3cc4ccccc4[nH]3)OCCO2)nc1
f
COc1cc(/C=C/C(=O)Oc2ccccc2)ccc1C(=O)O/C=C/c1ccccc1
f
O=C1NC(O)CCN1C1CC(O)C(CO)O1 (stereo not drawn)
f
N=C(N)SCc1cn2ccccc2n1
f
COC(=O)c1ccccc1C1CN=NC12Cc1ccccc1C2=O (stereo not drawn)
f

Q: Could you please tell me the result logged for O=C1/C(=C/c2cccc3ccccc23)CCc2ccc([N+](=O)[O-])cc21 in this assay?
Ans: f

Q: Name the outcome recorded for O=C(Nc1ccccc1C(=O)NCCCO)/C(=C/c1ccccc1O)NC(=O)c1ccccc1 in the assay.
Ans: f

Q: Would you mind telling me which call this test gave N=C(NC(=S)N1CCCCC1)N1CCCCC1 ?
Ans: f

Q: Just curious, what result did Oc1cc(-c2ccc3ccccc3c2)nc2ncc(Cl)cc12 get here?
Ans: f

Q: Per the assay record, what outcome was assigned to Clc1ccccc1C(n1cc(Br)cn1)n1cc(Br)cn1 ?
Ans: f

Q: Name the outcome recorded for CCOC(=O)N1C(=S)C(C(=O)OC)(C(=O)OC)N=C1C in the assay.
Ans: f

Q: Give the logged outcome of this assay for the following molecule: CCNC1=Nc2ccc(Cl)cc2C(c2ccccc2)=NN1
Ans: f

Q: Assay result, entry CN(C)S(=O)(=O)n1ccnc1 — outcome?
Ans: f

Q: What classification did O=C1O/C(=C(/Br)c2ccc(Cl)c(Cl)c2)c2ccccc21 end up with in this test?
Ans: f

Q: Kindly provide the recorded test outcome for the following molecule: COC1C(CO)OC(n2c3c(Cl)cccc3c3c4c(c5c6cccc(Cl)c6[nH]c5c32)C(=O)NC4=O)C(O)C1O (stereo not drawn)
Ans: t

Q: Any idea what this test logged for Cc1c(C)c2c(c(N)c1C#N)C(=O)N(NC(=O)c1ccccc1)C2=O ?
Ans: f

Q: How did this test come out for O=C1/C(=C\c2cccc(Oc3ccccc3)c2)S(=O)(=O)C(c2ccccc2)N1c1ccccc1Cl (stereo not drawn) ?
Ans: f

----------
# System: MDA-MB-435
# assay info: NCI tumour cell line growth inhibition, 48 h
Active and inactive are the calls of the source. Rule as the data show it: active = GI50 up to about 1.1 µM and inactive = higher.
measured metric: GI50

Example entries and their recorded answers appear below.
COc1cc2cc(C(=O)N3CC(COS(C)(=O)=O)c4c3cc([N+](=O)[O-])c3ccccc43)[nH]c2c(OC)c1OC (stereo not drawn)
> 31.6 µM (inactive)
O=C(N/C(=C\NC1=NCCS1)C(=O)N1CSC[C@@H]1C(=O)O)c1ccccc1
> 100 µM (inactive)
COC(=O)c1ccc(NC(=O)c2cc3c(cc2Br)OCO3)o1
32.7 µM (inactive)
Cc1nc(Cl)c(C)c(Cl)n1
33.3 µM (inactive)
CC(=O)Nc1ccc2c(c1)C(=O)c1cccc(F)c1-2
> 100 µM (inactive)
O=C(CCc1ccccc1)n1cccc1CO
> 100 µM (inactive)
C=C1CC23CCC4C(C)(C(=O)O)CCCC4(C)C2CCC1C3 (stereo not drawn)
62.1 µM (inactive)
CC(=O)Nc1ccc(NC(=O)c2c(Cl)c(Cl)c(Cl)c(Cl)c2-c2nc3ccccc3[nH]2)cc1
35.1 µM (inactive)

Q: Please report the recorded GI50 for CCCCNCCCNCCCNC(=O)c1csc(-c2csc(CCNC(=O)C(NC(=O)C(C)C(O)C(C)NC(=O)C(NC(=O)c3nc(C(CC(N)=O)NCC(N)C(N)=O)nc(N)c3C)C(OC3OC(CO)C(O)C(O)C3OC3OC(CO)C(O)C(OC(N)=O)C3O)c3c[nH]cn3)C(C)O)n2)n1 (stereo not drawn) .
Ans: 18.7 µM (inactive)

Q: Request the reported GI50 associated with O=C1CN(/N=C/c2ccc(-c3ccc(F)cc3)o2)C(=O)N1
Ans: 18.5 µM (inactive)

Q: What value of GI50 has been reported for the following molecule? Cc1ccc(S(=O)(=O)NC(=O)Nc2cccc(S(N)(=O)=O)c2)cc1
Ans: > 100 µM (inactive)

Q: Any idea what GI50 was measured for Fc1nc(Sc2ncnc3nc[nH]c23)nc(-c2c3ccccc3c3sc4ccccc4n23)n1 ?
Ans: > 100 µM (inactive)

Q: # lookup: GI50 of NS(=O)(=O)c1ccc(N2C(=O)C(=O)N(c3ccccc3)C2=S)cc1
Ans: > 100 µM (inactive)

----------
# Test system: KM12
# assay info: NCI tumour cell line growth inhibition, 48 h
The source made the active and inactive calls. Cut-off read from the data, not from the text of the source: active = GI50 up to about 1.1 µM and inactive = higher.
Tick one outcome: active, inactive

Some solved cases for reference:
CCCCCCCCCCCCCCCC(=O)OCCOCCOCCOCc1ccccc1
inactive
O=[N+]([O-])/C(C(Cl)=C(Cl)Cl)=C(/Br)SCc1ccccc1
inactive
CC1(C)O[C@H]2[C@H](O)C[C@](O)(CO)C[C@H]2O1
inactive
COc1ccc(S(=O)(=O)N/N=C\c2cc([N+](=O)[O-])cc(I)c2O)c(OC)c1OC
inactive

Q: Per the records of this test, what outcome belongs to O=C(Nc1nc2ccc([N+](=O)[O-])cc2s1)C(=O)C(C(=O)c1ccncc1)C1OC(=O)c2ccccc21 (centres undefined) ?
Ans: inactive

Q: I'd appreciate the recorded outcome for CC(=O)OC1COC(N2c3ccccc3[C@@H]3CCc4c([nH]c5ccccc45)[C@@H]32)C(OC(C)=O)C1OC(C)=O.CC(=O)OC1COC(N2c3ccccc3[C@H]3CCc4c([nH]c5ccccc45)[C@H]32)C(OC(C)=O)C1OC(C)=O (some centres undefined) from this test.
Ans: inactive

Q: Test call for this compound, please: Cc1cccc(C(C)(C)C)c1NC(=O)C(=O)C(c1cnc2ccccc2n1)[N+](=O)[O-] (centres undefined)
Ans: inactive

Q: Please state the recorded outcome for this compound: O=C1C2C(C(=O)N1c1ccccc1)C1(c3ccccc3)CCC2(C(=O)c2ccccc2)O1 (centres undefined)
Ans: inactive

----------
# Test system: M19-MEL
# assay info: NCI tumour cell line growth inhibition, 48 h
Activity calls are given as the source filed them. Rule as the data show it: active = GI50 up to about 1.1 µM and inactive = higher.
Listing: GI50 of selected molecules

Reference set (5 entries):
CC1(C=O)C(=O)CCC2(C)C3CC(=O)OC3CCC12 (stereo not given)
> 100 µM (inactive)
CCN(CC)CCOC(=O)/C(=C/c1ccc(OC)cc1)c1cc(OC)c(OC)c(OC)c1
7.26 µM (inactive)
COc1ccc2cc1Oc1ccc(cc1)CC1c3cc(c(OC)cc3CCN1C)Oc1c3c(cc4c1C(C2)N(C)CC4)OCO3 (stereo not given)
3.85 µM (inactive)
Cc1nc(O)nc(O)c1/C=C/C(=O)O
> 1000 µM (inactive)
O=C(Nc1ccc(Nc2ccc(NC(=O)c3ccccc3)c3c2C(=O)c2ccccc2C3=O)c2c1C(=O)c1ccccc1C2=O)c1ccccc1
> 100 µM (inactive)

Q: State the recorded GI50 for this entry: Nc1nc2[nH]cnc2c(=S)[nH]1
Ans: 9.82 µM (inactive)

Q: # get_value(readout='GI50', item= CC(=O)OCC1OC(OCc2ccccc2)C(Br)C(OC(C)=O)C1OC(C)=O (stereo not given) )
Ans: > 100 µM (inactive)

Q: Find the recorded GI50 belonging to CCC1(c2ccncc2)CCC(=O)NC1=O (stereo not given) [ROGLETIMIDE] and report it.
Ans: > 100 µM (inactive)

Q: // query GI50 value for entry C(=C\c1ccc2ccccc2c1Nc1ccccc1)/c1ccccc1
Ans: > 92.7 µM (inactive)

Q: Param item = O=C(N/C(=C\c1ccccc1[N+](=O)[O-])c1nc2ccccc2[nH]1)c1ccccc1 ; retrieve measured GI50.
Ans: > 100 µM (inactive)

----------
# Test system: MDA-N
# assay info: NCI tumour cell line growth inhibition, 48 h
Active and inactive are the calls of the source. Cut-off read from the data, not from the text of the source: active = GI50 up to about 1.1 µM and inactive = higher.
Listed next: entries and their corresponding GI50.

Guide cases for GI50, answers given:
O=[N+]([O-])c1ccc(NN=C2CN3CCN(C2)c2ccccc23)c([N+](=O)[O-])c1
> 100 µM (inactive)
C=C(C)C1=CCC[C@]2(C1)N=C(OC)[C@@H](C(C)C)N=C2OC
32.2 µM (inactive)

# input for lookup
Q: Item under review: Cn1cnc2c(NCc3ccccc3)nc(NCCO)nc21 [OLOMOUCINE] . Reported GI50?
Ans: 79.4 µM (inactive)
